Biological target: Human JAK1 (Homo sapiens, UniProt P23458)
Construct: purchased Millipore, Germany
Sequence (P23458 whole entry): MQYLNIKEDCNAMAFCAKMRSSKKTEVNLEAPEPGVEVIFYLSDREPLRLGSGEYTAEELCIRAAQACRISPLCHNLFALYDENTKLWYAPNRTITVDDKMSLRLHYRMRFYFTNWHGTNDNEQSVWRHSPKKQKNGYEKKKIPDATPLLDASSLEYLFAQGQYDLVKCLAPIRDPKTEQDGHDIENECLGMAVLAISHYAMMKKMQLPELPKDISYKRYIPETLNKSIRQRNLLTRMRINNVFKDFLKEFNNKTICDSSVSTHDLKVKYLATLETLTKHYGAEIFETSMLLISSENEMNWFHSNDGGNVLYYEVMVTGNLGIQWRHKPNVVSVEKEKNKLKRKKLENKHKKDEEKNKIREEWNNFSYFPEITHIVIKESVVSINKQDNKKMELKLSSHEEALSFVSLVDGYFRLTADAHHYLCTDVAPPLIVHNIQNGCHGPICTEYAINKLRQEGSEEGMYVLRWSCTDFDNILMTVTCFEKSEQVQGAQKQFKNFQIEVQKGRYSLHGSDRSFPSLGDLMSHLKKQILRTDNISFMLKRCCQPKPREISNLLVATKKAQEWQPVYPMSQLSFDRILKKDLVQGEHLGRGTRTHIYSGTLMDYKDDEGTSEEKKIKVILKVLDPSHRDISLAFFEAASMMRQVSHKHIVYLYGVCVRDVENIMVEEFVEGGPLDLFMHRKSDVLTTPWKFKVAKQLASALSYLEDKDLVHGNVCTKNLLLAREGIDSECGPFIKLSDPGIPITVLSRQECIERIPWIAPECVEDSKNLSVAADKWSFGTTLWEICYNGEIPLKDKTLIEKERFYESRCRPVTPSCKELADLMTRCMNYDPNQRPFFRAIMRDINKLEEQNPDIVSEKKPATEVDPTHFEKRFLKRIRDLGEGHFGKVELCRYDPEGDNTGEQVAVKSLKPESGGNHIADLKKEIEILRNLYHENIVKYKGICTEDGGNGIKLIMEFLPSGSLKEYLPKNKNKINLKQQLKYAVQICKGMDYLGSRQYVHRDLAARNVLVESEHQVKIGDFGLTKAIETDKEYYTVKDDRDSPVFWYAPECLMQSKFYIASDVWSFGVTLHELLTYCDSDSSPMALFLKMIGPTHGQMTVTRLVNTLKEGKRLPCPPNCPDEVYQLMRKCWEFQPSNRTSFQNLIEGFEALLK
Assay: In-vitro kinase inhibition test, JAK1
Assay type: biochemical
Conditions: ratio of % inhibition of JAK1 to JAK2 at 1 uM
measure: JAK1/JAK2

Sample records with JAK1/JAK2:
compound	measured-target	measure	observed-value
N#Cc1cccc(S(=O)(=O)N2CC[C@@H](Nc3ncnc4[nH]ccc34)C2)c1 [Example 32]	Human JAK1 (Homo sapiens, UniProt P23458)	JAK1/JAK2	2.31
CC(C)COC(=O)N1CC[C@@H](N(C)c2ncnc3[nH]ccc23)C1 [Example 6]	Human JAK1 (Homo sapiens, UniProt P23458)	JAK1/JAK2	10.33
CN(c1ncnc2[nH]ccc12)C1CCN(S(=O)(=O)c2ccccc2)CC1 [Example 38]	Human JAK1 (Homo sapiens, UniProt P23458)	JAK1/JAK2	1.03
CN(c1ncnc2[nH]ccc12)[C@@H]1CCCN(S(=O)(=O)c2cccc(C#N)c2)C1 [Example 41]	Human JAK1 (Homo sapiens, UniProt P23458)	JAK1/JAK2	1.44
CN(c1ncnc2[nH]ccc12)[C@@H]1CCN(S(=O)(=O)c2ccc3ccccc3c2)C1 [Example 28]	Human JAK1 (Homo sapiens, UniProt P23458)	JAK1/JAK2	1.74
CN(c1ncnc2[nH]ccc12)[C@@H]1CCN(S(=O)(=O)c2ccccc2C#N)C1 [Example 18]	Human JAK1 (Homo sapiens, UniProt P23458)	JAK1/JAK2	1.33
CCCS(=O)(=O)N1CC[C@@H](N(C)c2ncnc3[nH]ccc23)C1 [Example 11]	Human JAK1 (Homo sapiens, UniProt P23458)	JAK1/JAK2	1.55
CCCCN1CC[C@@H](N(C)c2ncnc3[nH]ccc23)C1 [Example 3]	Human JAK1 (Homo sapiens, UniProt P23458)	JAK1/JAK2	∞
CN(c1ncnc2[nH]ccc12)[C@@H]1CCN(S(=O)(=O)c2ccccc2[N+](=O)[O-])C1 [Example 21]	Human JAK1 (Homo sapiens, UniProt P23458)	JAK1/JAK2	1.94
CN(c1ncnc2[nH]ccc12)[C@@H]1CCN(C(=O)CN=[N+]=[N-])C1 [Example 4]	Human JAK1 (Homo sapiens, UniProt P23458)	JAK1/JAK2	1.24

Please report the measured JAK1/JAK2 for CN(c1ncnc2[nH]ccc12)[C@@H]1CN(C(=O)CC#N)CC1(C)C [Example 44] tested on Human JAK1 (Homo sapiens, UniProt P23458).
∞

Under Human JAK1 (Homo sapiens, UniProt P23458): report JAK1/JAK2 of CC(C)S(=O)(=O)N1CC[C@@H](N(C)c2ncnc3[nH]ccc23)C1 [Example 12] .
7.82

# lookup: Human JAK1 (Homo sapiens, UniProt P23458) JAK1/JAK2, key = CN(c1ncnc2[nH]ccc12)C1CCN(C(=O)CC#N)CC1 [Example 37]
49.00

Fill in JAK1/JAK2 for CN(c1ncnc2[nH]ccc12)[C@@H]1CCN(S(=O)(=O)N2CCCCC2)C1 [Example 29] tested with Human JAK1 (Homo sapiens, UniProt P23458).
4.33

Supply JAK1/JAK2 measured with Human JAK1 (Homo sapiens, UniProt P23458) for Cc1cccc(S(=O)(=O)N2CC[C@@H](N(C)c3ncnc4[nH]ccc34)C2)c1 [Example 24] .
1.79

Print Human JAK1 (Homo sapiens, UniProt P23458) JAK1/JAK2 for COc1ccc(S(=O)(=O)N2CC[C@@H](N(C)c3ncnc4[nH]ccc34)C2)cc1 [Example 26] .
2.23

Give JAK1/JAK2; test system Human JAK1 (Homo sapiens, UniProt P23458); compound CCN(c1ncnc2[nH]ccc12)[C@@H]1CCN(S(=O)(=O)c2cccc(C#N)c2)C1 [Example 34]
1.13

Send back Human JAK1 (Homo sapiens, UniProt P23458) JAK1/JAK2 of N#CCC(=O)N1C[C@H]2CCCN(c3ncnc4[nH]ccc34)[C@H]2C1 [Example 49] only.
∞

Report value only: JAK1/JAK2, Human JAK1 (Homo sapiens, UniProt P23458), CN(c1ncnc2[nH]ccc12)[C@@H]1CCN(CCC#N)C1 [Example 2]
2.17

Look up Human JAK1 (Homo sapiens, UniProt P23458) data: JAK1/JAK2 of N#Cc1cccc(S(=O)(=O)N2CC[C@@H](N(CC3CC3)c3ncnc4[nH]ccc34)C2)c1 [Example 36] , then report it.
2.18

// output JAK1/JAK2; input CN(c1ncnc2[nH]ccc12)[C@@H]1CCN(S(=O)(=O)c2ccccc2)C1 [Example 14] ; system Human JAK1 (Homo sapiens, UniProt P23458)
1.43

// fetch JAK1/JAK2 for C[C@@H]1CCN(S(=O)(=O)c2cccc(C#N)c2)C[C@@H]1N(C)c1ncnc2[nH]ccc12 [Example 42] ; system: Human JAK1 (Homo sapiens, UniProt P23458)
1.20

With Human JAK1 (Homo sapiens, UniProt P23458) as the test system, provide measured JAK1/JAK2 for this compound: N#CCC(=O)N1CCC(Oc2ncnc3[nH]ccc23)CC1 [Example 45]
7.00

# return JAK1/JAK2 for CN(c1ncnc2[nH]ccc12)[C@@H]1CCN(C(=O)Nc2ccccc2)C1 [Example 7] , test system: Human JAK1 (Homo sapiens, UniProt P23458)
1.43

---

Target: Human JAK1 (Homo sapiens, UniProt P23458)
Construct: purchased Millipore, Germany
Assay: In-vitro kinase inhibition test, JAK1
Type: biochemical
Conditions: compound at 1 uM; read-out: JAK1 kinase-phosphorylation inhibitory level (% inhibition)
measure: inhibition at 1 µM
Give the number first and the unit second.

Consider the compound CN(c1ncnc2[nH]ccc12)[C@@H]1CCN(S(=O)(=O)N2CCCCC2)C1 [Example 29] . State its measured inhibition at 1 µM.
91%

Identify measured inhibition at 1 µM associated with CN(c1ncnc2[nH]ccc12)[C@@H]1CCN(S(=O)(=O)C(F)(F)F)C1 [Example 9]
90%

Return value of inhibition at 1 µM for input N#CCC(=O)N1CC[C@@H](N(CC2CC2)c2ncnc3[nH]ccc23)C1 [Example 35] , no commentary.
88%

Where do the numbers come from? From patent US10407430B2.
